Study system: T1, cSNK:BSA conjugate (bovine, head-to-tail cyclized; conjugated to BSA carrier)
T1 construct: also called BSA-cSNK
T1 sequence (P02769 25-607 limits assumed): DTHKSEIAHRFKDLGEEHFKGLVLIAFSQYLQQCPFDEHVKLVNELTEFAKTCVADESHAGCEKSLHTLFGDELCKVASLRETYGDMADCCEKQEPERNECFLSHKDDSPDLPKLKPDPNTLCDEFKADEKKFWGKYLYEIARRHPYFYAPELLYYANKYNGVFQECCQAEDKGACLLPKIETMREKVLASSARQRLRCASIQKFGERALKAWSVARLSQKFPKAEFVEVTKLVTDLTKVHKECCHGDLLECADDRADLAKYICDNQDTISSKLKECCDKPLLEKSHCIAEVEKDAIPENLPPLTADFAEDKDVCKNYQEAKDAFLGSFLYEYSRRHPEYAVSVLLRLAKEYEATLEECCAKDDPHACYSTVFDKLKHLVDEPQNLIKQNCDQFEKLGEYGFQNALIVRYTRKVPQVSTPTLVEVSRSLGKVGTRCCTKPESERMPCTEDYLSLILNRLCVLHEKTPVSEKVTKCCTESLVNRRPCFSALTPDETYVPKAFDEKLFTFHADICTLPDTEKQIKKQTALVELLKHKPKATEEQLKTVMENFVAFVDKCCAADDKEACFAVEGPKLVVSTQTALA
Procedure details: BLI (Octet), KD1
Measured Kd, listed per entry.
Write the numeric value and follow it with the unit.

Given the entry 5E3HCDR3-E209D (antibody, IgG1, V domains shown, hu5E3 IgG1 vector mutant; same change as 5E3HCDR3-E255D) VH: QVQLQQSGPEVKKPGASVKISCKASGYIFTSYYIQWVIHAPGQGLEWIGWIYPGNVNTKYNEKFKGKATLTADKSSSTAYMELSSLTSEDTAVYFCARMDYDAHYWGQGTTVTVSS VL: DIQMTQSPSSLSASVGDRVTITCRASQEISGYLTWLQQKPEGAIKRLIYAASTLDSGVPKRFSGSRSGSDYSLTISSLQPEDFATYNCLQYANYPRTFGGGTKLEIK , report its measured Kd.
3.21 nM

Given the entry 5E3KCDR2-S80D (antibody, IgG1, V domains shown, hu5E3 IgG1 vector mutant; also called 5E3-S80D-AFF) VH: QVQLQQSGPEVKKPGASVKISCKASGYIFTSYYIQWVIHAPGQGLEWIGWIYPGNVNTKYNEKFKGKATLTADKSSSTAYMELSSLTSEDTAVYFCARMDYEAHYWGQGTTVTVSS VL: DIQMTQSPSSLSASVGDRVTITCRASQEISGYLTWLQQKPEGAIKRLIYAASTLDDGVPKRFSGSRSGSDYSLTISSLQPEDFATYNCLQYANYPRTFGGGTKLEIK , report its measured Kd.
0.0269 nM

Given the entry 5E3HCDR3-E209Q (antibody, IgG1, V domains shown, hu5E3 IgG1 vector mutant) VH: QVQLQQSGPEVKKPGASVKISCKASGYIFTSYYIQWVIHAPGQGLEWIGWIYPGNVNTKYNEKFKGKATLTADKSSSTAYMELSSLTSEDTAVYFCARMDYQAHYWGQGTTVTVSS VL: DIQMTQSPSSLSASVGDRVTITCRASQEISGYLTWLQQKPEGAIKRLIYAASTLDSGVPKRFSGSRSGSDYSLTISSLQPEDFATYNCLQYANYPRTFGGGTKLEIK , report its measured Kd.
1.86 nM
